The reported measurements were obtained from ChEMBL document CHEMBL1697781.

System: Hepatotoxicity
Assay: FDA HLAED, serum glutamic oxaloacetic transaminase (SGOT) increase
Conditions: human
Numbered stars: 1 amine (or outer) side, 2 acyl side, 3 side chain; on linkers, the order of the positions; unused ones are H or OH. Bridge positions count the residues as written; N and C are the ends. Square brackets hold non-standard residues; d marks the D form. Peptide text beside a SMILES is read from it. I, II: the chains in the order shown. Actinocin(9to1) = Cc1c2oc3c(C)ccc(C(=O)[*:1])c3nc-2c(C(=O)[*:2])c(N)c1=O; NMeV = CN[C@H](C(=O)O)C(C)C; Sar = CNCC(=O)O
READOUT KIND: SGOT Increase - Number of Reports

>>> result("Cc1cccc(C)c1NC(=O)C(C)N (centres undefined) [TOCAINIDE]")
">= 4"
>>> result("Cc1ccc(C(=O)Oc2ccc(C(O)CNC(C)(C)C)cc2OC(=O)c2ccc(C)cc2)cc1 (centres undefined)")
"< 4"
>>> result("CCCCC[C@H](O)/C=C/[C@@H]1[C@H]2C/C(=C/CCCC(=O)O)O[C@H]2C[C@H]1O")
"< 4"
>>> result("CC(C)NCC(O)c1ccc(NS(C)(=O)=O)cc1 (centres undefined)")
"< 4"
>>> result("COc1cc([C@@H]2c3cc4c(cc3[C@H](O)[C@H]3COC(=O)[C@H]23)OCO4)cc(OC)c1OC")
"< 4"
>>> result("CCCCC(C)(O)C/C=C/[C@H]1[C@H](O)CC(=O)[C@@H]1CCCCCCC(=O)OC (some centres undefined)")
">= 4"
>>> result("CO/N=C(\\C(=O)N[C@@H]1C(=O)N2C(C(=O)O)=CCS[C@H]12)c1csc(N)n1")
">= 4"
>>> result("c1ccc([C@H]2CN3CCSC3=N2)cc1")
">= 4"
>>> result("CNC(=C[N+](=O)[O-])NCCSCc1ccc(CN(C)C)o1")
">= 4"
>>> result("Cn1nnnc1SCC1=C(C(=O)O)N2C(=O)[C@@H](NC(=O)[C@H](O)c3ccccc3)[C@H]2SC1")
"< 4"
>>> result("CCC(C)n1ncn(-c2ccc(N3CCN(c4ccc(OCC5COC(Cn6cncn6)(c6ccc(Cl)cc6Cl)O5)cc4)CC3)cc2)c1=O (centres undefined)")
">= 4"
>>> result("O=C(O)c1cc(/N=N/c2ccc(O)c(C(=O)O)c2)ccc1O")
"< 4"
>>> result("CNC(=C[N+](=O)[O-])NCCSCc1csc(CN(C)C)n1")
">= 4"
>>> result("Cc1c2oc3c(C)ccc(C(=O)N[C@@H]4C(=O)N[C@H](C(C)C)C(=O)N5CCC[C@H]5C(=O)N(C)CC(=O)N(C)[C@@H](C(C)C)C(=O)O[C@@H]4C)c3nc-2c(C(=O)N[C@@H]2C(=O)N[C@H](C(C)C)C(=O)N3CCC[C@H]3C(=O)N(C)CC(=O)N(C)[C@@H](C(C)C)C(=O)O[C@@H]2C)c(N)c1=O [DACTINOMYCIN] (I: T[dV]P[Sar][NMeV] / II: T[dV]P[Sar][NMeV]; ester I:1-I:C, II:1-II:C; linker I:N-II:N via Actinocin(9to1))")
">= 4"
